Tested on: K562
Assay: Antiproliferative activity against human K562 cells after 48 hrs by Coulter counting analysis
Assay type: functional, cell-based
Details: K562, 48 h
endpoint label: pIC50
One number for each entry, as −log10 of the molar value.

Retrieve pIC50 on K562; query "C=C(Br)C(=O)Nc1ccc(C(=O)/C=C/c2ccc(OC)c(OC)c2OC)cc1" 6.70

====

Tested on: MOLT-4
Experiment: Antiproliferative activity against human MOLT4 cells after 48 hrs by Coulter counting analysis
Type: functional, cell-based
Conditions: MOLT-4, 48 h
pIC50: −log10 of the molar value.
Binary call on pIC50: 1 from 6 upward, -1 beneath that.

Reference set, count: 6
molecular_string=C=C(Br)C(=O)Nc1ccc(C(=O)/C=C/c2ccc(OC)cc2)cc1 class=1
molecular_string=Nc1ccc(/C=C/C(=O)c2ccc(F)cc2)cc1 class=-1
molecular_string=C=C(Br)C(=O)Nc1ccc(C(=O)/C=C/c2ccc(OC)c(OC)c2)cc1 class=-1
molecular_string=C=C(Br)C(=O)Nc1ccc(/C=C/C(=O)c2ccc(I)cc2)cc1 class=-1
molecular_string=COc1ccc(/C=C/C(=O)c2ccc(N)cc2)c(OC)c1 class=-1
molecular_string=Nc1ccc(/C=C/C(=O)c2ccc(I)cc2)cc1 class=-1

Please look at the following compound next.
Identify whether the reported pIC50 of the following compound is 6 or greater: "C=C(Br)C(=O)Nc1ccc(C(=O)/C=C/c2ccccc2)cc1" 1

====

Tested on: L1210
Assay: Antiproliferative activity against mouse L1210 cells after 48 hrs by Coulter counting analysis
Assay type: functional, cell-based
Details: L1210, 48 h
pIC50: −log10 of the molar value.
Binary call on pIC50: YES from 5 upward, NO beneath that.

Reference set, count: 5
molecular_string=C=C(Br)C(=O)Nc1ccc(/C=C/C(=O)c2ccc(Cl)c(Cl)c2)cc1 class=YES
molecular_string=C=C(Br)C(=O)Nc1ccc(/C=C/C(=O)c2ccc(Cl)cc2)cc1 class=YES
molecular_string=C=C(Br)C(=O)Nc1ccc(/C=C/C(=O)c2ccc(F)cc2)cc1 class=YES
molecular_string=C=C(Br)C(=O)Nc1ccc(/C=C/C(=O)c2ccc(OCC)cc2)cc1 class=YES
molecular_string=COc1ccc(/C=C/C(=O)c2ccc(N)cc2)c(OC)c1OC class=NO

Identify whether the reported pIC50 of the following compound is 5 or greater: "COc1ccc(/C=C/C(=O)c2ccc(N)cc2)cc1" NO

Identify whether the reported pIC50 of the following compound is 5 or greater: "Nc1ccc(C(=O)/C=C/c2ccccc2)cc1" NO

Identify whether the reported pIC50 of the following compound is 5 or greater: "COc1cc(/C=C/C(=O)c2ccc(N)cc2)cc(OC)c1" YES

Identify whether the reported pIC50 of the following compound is 5 or greater: "C=C(Br)C(=O)Nc1ccc(C(=O)/C=C/c2ccc(OC)c(OC)c2OC)cc1" YES

Identify whether the reported pIC50 of the following compound is 5 or greater: "C=C(Br)C(=O)Nc1ccc(C(=O)/C=C/c2ccccc2OC)cc1" YES

Identify whether the reported pIC50 of the following compound is 5 or greater: "COc1cccc(C(=O)/C=C/c2ccc(N)cc2)c1" NO

Identify whether the reported pIC50 of the following compound is 5 or greater: "C=C(Br)C(=O)Nc1ccc(C(=O)/C=C/c2cccc(OC)c2)cc1" YES

Identify whether the reported pIC50 of the following compound is 5 or greater: "CCOc1ccc(C(=O)/C=C/c2ccc(N)cc2)cc1" NO

Identify whether the reported pIC50 of the following compound is 5 or greater: "COc1ccc(C(=O)/C=C/c2ccc(N)cc2)cc1" NO

Identify whether the reported pIC50 of the following compound is 5 or greater: "C=C(Br)C(=O)Nc1ccc(C(=O)/C=C/c2ccccc2)cc1" YES

Identify whether the reported pIC50 of the following compound is 5 or greater: "Nc1ccc(/C=C/C(=O)c2ccc(F)cc2)cc1" NO

Identify whether the reported pIC50 of the following compound is 5 or greater: "Nc1ccc(/C=C/C(=O)c2ccc(Cl)cc2)cc1" NO

Identify whether the reported pIC50 of the following compound is 5 or greater: "CN(C)c1ccc(/C=C/C(=O)c2ccc(N)cc2)cc1" NO
